targetDesc: T1, FcRn-p3 fusion protein (human, UniProt P55899 24-297; P61769 21-119)
T1 construct: baculovirus expressed; coated on ELISA wells; not shown: amino terminal part of bacteriophage p3 protein and CVDE protein
T1 sequence (P55899 24-297, chain 1 of 2): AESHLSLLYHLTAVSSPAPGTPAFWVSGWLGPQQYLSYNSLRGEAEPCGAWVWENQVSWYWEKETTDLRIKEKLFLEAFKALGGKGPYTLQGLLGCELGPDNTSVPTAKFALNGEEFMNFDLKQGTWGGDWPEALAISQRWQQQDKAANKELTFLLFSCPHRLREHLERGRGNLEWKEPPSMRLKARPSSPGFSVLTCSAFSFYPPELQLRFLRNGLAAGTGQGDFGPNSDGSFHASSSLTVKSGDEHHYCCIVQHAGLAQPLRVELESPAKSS
T1 sequence (P61769 21-119, chain 2 of 2): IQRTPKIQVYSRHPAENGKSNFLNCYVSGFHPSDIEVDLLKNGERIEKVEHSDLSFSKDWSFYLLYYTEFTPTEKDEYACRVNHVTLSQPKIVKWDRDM
assayMethodText: phage ELISA pH6 (est.)
Recorded measurements of Ratio/FWT, one per entry
Just the number please, in fold, no unit attached.

Use these answered entries as a reference point.
Kindly note the recorded Ratio/FWT for C4A_27 (other, EU numbering) CPPCPAPELLGGPSVFLFPPKPKDTLMISRTPEVTCVVADVSHEDPEVKFNWYVDGVEVHNAKTKPREEQYNSAYRVVSVLTVLHQDWLNGKEYKCKVSNKALPAPIEKTISKAKGQPREPQVYTLPPSRDELTKNQVSLTCLVKGFYPSDIVVEWGSNGQPENNYKTTPPVLDSDGSFFLYSKLTVDKSRWQQGNVFSCSVMHEALHYHYTQKSLSLSPGK , which is 8.7

Record summary for T6A_40 (other, EU numbering) CPPCAAPELLGGPSVLLFPPKPKDTLMISRTPEVTCVVEDVSHEDPEVKFNWYVDGVEVHNAKTKPREEQYNSTYRVVSVLTVLHQDWLNGKEYKCKVSNKALPAPIEKTISKAKGQPREPQVYTLPPSRDELTKNQVSLTCLVKGFYPSDIVVEWESNGQPENNYKTTPPVLDSDGSFFLYSKLTVDKSRWQQGTVFSCSVMHEALHNHYTQKSLSLSPGK : reported Ratio/FWT = 9.1

Here is the next item to consider.
Entry C6A_12 (other, EU numbering) CPPCTAPELLGGPSVFLFPPKPKDTLMISRTPEVTCVVVDVSHEDPEVKFNWYVDGVEVHNAKTKPREEQYNSTYRVVSVLTVLHQDWLDGKEYKCKVSNKALPAPIEKTISKAKGQPREPQVYTLPPSRDELTKNEVSLTCLVKGFYPSDIAVEWESNGQPENNYKTTPPVLDSDGSFFLYSKLTVDKSRWQQGNVFSCSVMHEALHYHYTQKSLSLSPGK , Ratio/FWT reported as 14.9
